Give IC50 for every item shown.
Target: IL-17A/A (Homo sapiens, UniProt Q16552)
Test: IL-17A/A HEK-Blue cell assay (SEAP reporter)
Conditions: HEK-Blue IL-17A reporter cells, IL17A/A 5 ng/mL, 20 hours, SEAP read at A630; read-out: HEK-Blue IL17AA (IC50 for IL-17A/A inhibition)

The reported value for C[C@@H]1CN(c2nc3nc([C@@H](NC(=O)c4ccnn4C)[C@@H]4CCCC(F)(F)C4)cn3nc2C[C@H]2C[C@H](C(F)(F)F)CNC2=O)CCO1 [Compound 309] in terms of IC50 is < 100 nM

The reported value for CCn1nccc1C(=O)N[C@H](c1cn2nc(CC3C[C@@H](C(F)(F)F)CNC3=O)c(N3C[C@H]4C[C@@H]3CO4)nc2n1)C1CCC(F)(F)CC1 (single isomer, unassigned) [Compound 86] in terms of IC50 is < 100 nM

The reported value for CCn1nccc1C(=O)N[C@H](c1cn2nc(C[C@H]3C[C@@H](C(F)(F)F)CNC3=O)c(N3CCN(C)C(C4CC4)C3)nc2n1)C1CCC(F)(F)CC1 (single isomer, unassigned) [Compound 432] in terms of IC50 is < 100 nM

The reported value for CCn1nccc1C(=O)N[C@H](c1cn2nc(C[C@H]3C[C@@H](C(F)(F)F)CNC3=O)c(CN3CC4(C3)CC(O)(C(F)(F)F)C4)nc2n1)C1CCC(F)(F)CC1 [Compound 341] in terms of IC50 is < 100 nM

The reported value for CCn1nccc1C(=O)N[C@H](c1cn2nc(C[C@H]3C[C@@H](C(F)(F)F)CNC3=O)c([C@H](C)N3CCOCC3)nc2n1)C1CCC(F)(F)CC1 (single isomer, unassigned) [Compound 381] in terms of IC50 is 100 to 1000 nM

The reported value for CCn1nccc1C(=O)N[C@H](c1cn2nc(CC3C[C@H](C(F)(F)F)CNC3=O)c(N3CCOCC3)nc2n1)C1CCC(F)(F)CC1 (single isomer, unassigned) [Compound 50] in terms of IC50 is 100 to 1000 nM

The reported value for CC(C)n1nccc1C(=O)N[C@H](c1cn2nc(C[C@H]3C[C@@H](C(F)(F)F)CNC3=O)c(C3CCOCC3)nc2n1)C1CCC(F)(F)CC1 [Compound 147] in terms of IC50 is < 100 nM

The reported value for CCn1nccc1C(=O)N[C@H](c1cn2nc(CC3C[C@@H](C(F)(F)F)CNC3=O)c(N3C[C@H]4C[C@@H]3CO4)nc2n1)C1CCC(F)(F)CC1 (single isomer, unassigned) [Compound 85] in terms of IC50 is 100 to 1000 nM

The reported value for CCn1nccc1C(=O)N[C@H](c1cn2nc(C[C@H]3C[C@@H](C)CNC3=O)c(C3CCOCC3)nc2n1)C1CCC(F)(F)CC1 [Compound 303] in terms of IC50 is < 100 nM

The reported value for CCn1nccc1C(=O)N[C@H](c1cn2nc(C[C@H]3C[C@H](C(F)(F)F)CNC3=O)c(C(C)(C)C)nc2n1)C1CCC(F)(F)CC1 [Compound 156] in terms of IC50 is < 100 nM

* * *

Biological target: IL-17A/F (Homo sapiens, UniProt Q16552+Q96PD4)
Sequence (Q16552 24-155): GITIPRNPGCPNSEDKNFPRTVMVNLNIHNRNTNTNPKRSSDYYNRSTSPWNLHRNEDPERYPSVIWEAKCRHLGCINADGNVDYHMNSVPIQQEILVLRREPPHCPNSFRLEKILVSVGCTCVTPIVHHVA
Sequence (Q96PD4 31-163): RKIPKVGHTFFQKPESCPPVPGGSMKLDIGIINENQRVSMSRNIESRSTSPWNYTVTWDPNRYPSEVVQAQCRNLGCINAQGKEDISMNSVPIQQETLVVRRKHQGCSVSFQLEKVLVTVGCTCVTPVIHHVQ
Assay: IL-17A/F HEK-Blue cell assay (SEAP reporter)
Conditions: HEK-Blue IL-17A reporter cells, IL17A/F 5 ng/mL, 20 hours, SEAP read at A630; read-out: HEK-Blue IL17AF (IC50 for IL-17A/F inhibition)
pIC50: −log10 of the molar value.
Give pIC50 for every item shown.

The reported value for `CCn1nccc1C(=O)N[C@H](c1cn2nc(C[C@H]3CC(F)(F)CNC3=O)c(C3CCOCC3)nc2n1)[C@H]1CC[C@H](C)CC1` in terms of pIC50 is 6.00 to 7.00

The reported value for `O=C(N[C@H](c1cn2nc(C[C@H]3C[C@@H](C(F)(F)F)CNC3=O)cnc2n1)C(C1CC1)C1CC1)c1nonc1C1CC1` in terms of pIC50 is < 6.00

The reported value for CCn1nccc1C(=O)N[C@H](c1cn2nc(CC3C[C@@H](C(F)(F)F)CNC3=O)c(N3C[C@@H]4C[C@H]3CO4)nc2n1)C1CCC(F)(F)CC1 (single isomer, unassigned) [Compound 98] in terms of pIC50 is > 7.00

The reported value for CCn1nccc1C(=O)N[C@H](c1cn2nc(C[C@H]3C[C@@H](C(F)(F)F)CNC3=O)c(CN3CCOC[C@H]3C)nc2n1)C1CCC(F)(F)CC1 (single isomer, unassigned) in terms of pIC50 is 6.00 to 7.00

The reported value for `O=C(N[C@H](c1cn2nc(C[C@H]3C[C@@H](C(F)(F)F)CNC3=O)cnc2n1)C1CCC(F)(F)CC1)c1conc1CCF` in terms of pIC50 is < 6.00
